The values you see were collected from the supplement of paper PMC7877785.

- test: self-splicing fitness, log relative to wild type (ln ratio); higher = more splicing; Tetrahymena group I intron in knt gene, E. coli kanamycin selection, DiMSum; sequences stand for … in CUCUCU…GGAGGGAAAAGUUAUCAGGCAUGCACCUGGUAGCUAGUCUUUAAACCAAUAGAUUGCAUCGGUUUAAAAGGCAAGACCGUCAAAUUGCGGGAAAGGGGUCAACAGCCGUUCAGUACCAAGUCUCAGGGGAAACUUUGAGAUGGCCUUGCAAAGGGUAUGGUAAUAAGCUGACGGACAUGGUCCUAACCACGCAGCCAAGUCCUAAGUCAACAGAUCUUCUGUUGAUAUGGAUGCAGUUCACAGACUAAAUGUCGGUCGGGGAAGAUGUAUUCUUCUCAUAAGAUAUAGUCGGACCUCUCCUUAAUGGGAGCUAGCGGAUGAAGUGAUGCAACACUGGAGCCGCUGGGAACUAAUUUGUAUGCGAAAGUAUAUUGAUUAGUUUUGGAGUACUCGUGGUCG;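 also: selection with 25 µg/mL kanamycin versus none on LB agar overnight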
- experimental-setup: 37 °C
Could you label it Met if measured self-splicing fitness (ln) is -2 or higher, and Not met otherwise?

Record excerpt, results attached:
query_sequence=AGGAAGCAAUAUUACGACCC cat=Met
query_sequence=GACGAGCAAUAUUACGGCCG cat=Met
query_sequence=GCUCAGCAAUAUUACGCAGU cat=Met
query_sequence=CUACAGCAAUAUUACGAGUG cat=Met
query_sequence=GUCUAGCAAUAUUACGUUUG cat=Met

Ask: Please indicate if the recorded self-splicing fitness (ln) for UCUUAGCAAUAUUACGGGUC meets or exceeds -2.
Reply: Not met

Ask: Another sequence: UAGCAGCAAUAUUACGCUCG
Reply: Met

Ask: Another sequence: AGUAAGCAAUAUUACGUAUG
Reply: Not met

Ask: Another sequence: AGAGAGCAAUAUUACGCAAU
Reply: Not met

Ask: Another sequence: UGGAAGCAAUAUUACGCAUG
Reply: Met

====

- test: self-splicing fitness, log relative to wild type (ln ratio); higher = more splicing; Tetrahymena group I intron in knt gene, E. coli kanamycin selection, DiMSum; sequences stand for … in CUCUCU…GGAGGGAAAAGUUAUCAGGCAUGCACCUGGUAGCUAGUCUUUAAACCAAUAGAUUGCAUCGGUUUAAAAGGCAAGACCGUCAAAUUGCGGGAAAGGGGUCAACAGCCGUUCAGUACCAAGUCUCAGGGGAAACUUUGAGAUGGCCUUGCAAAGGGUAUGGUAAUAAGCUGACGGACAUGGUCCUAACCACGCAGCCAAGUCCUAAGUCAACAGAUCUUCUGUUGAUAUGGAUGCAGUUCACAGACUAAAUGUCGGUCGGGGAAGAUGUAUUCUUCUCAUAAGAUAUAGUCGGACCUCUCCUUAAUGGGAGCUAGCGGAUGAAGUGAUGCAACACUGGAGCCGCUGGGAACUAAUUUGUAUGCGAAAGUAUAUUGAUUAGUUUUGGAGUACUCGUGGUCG
- experimental-setup: 30 °C
Assignment: determine reported self-splicing fitness (ln) for the given sequences.
Give bare numbers.

Solved cases (3 shown):
query_sequence=ACAGAGCAAUAUUACGAUGA quantitative_result=-1.49
query_sequence=GCGCAGCAAUAUUACGCGAA quantitative_result=-0.172
query_sequence=UCCAAGCAAUAUUACGGUCG quantitative_result=-2.37

// for each sequence in input: emit self-splicing fitness (ln)
1. CGACAGCAAUAUUACGAUGA
2. ACAUAGCAAUAUUACGGACU

Reply:
1: -0.751; 2: -0.288
